system.tested: DDR1 kinase (Homo sapiens)
Sequence (Q08345 19-876 isoform Q08345-2 limits assumed): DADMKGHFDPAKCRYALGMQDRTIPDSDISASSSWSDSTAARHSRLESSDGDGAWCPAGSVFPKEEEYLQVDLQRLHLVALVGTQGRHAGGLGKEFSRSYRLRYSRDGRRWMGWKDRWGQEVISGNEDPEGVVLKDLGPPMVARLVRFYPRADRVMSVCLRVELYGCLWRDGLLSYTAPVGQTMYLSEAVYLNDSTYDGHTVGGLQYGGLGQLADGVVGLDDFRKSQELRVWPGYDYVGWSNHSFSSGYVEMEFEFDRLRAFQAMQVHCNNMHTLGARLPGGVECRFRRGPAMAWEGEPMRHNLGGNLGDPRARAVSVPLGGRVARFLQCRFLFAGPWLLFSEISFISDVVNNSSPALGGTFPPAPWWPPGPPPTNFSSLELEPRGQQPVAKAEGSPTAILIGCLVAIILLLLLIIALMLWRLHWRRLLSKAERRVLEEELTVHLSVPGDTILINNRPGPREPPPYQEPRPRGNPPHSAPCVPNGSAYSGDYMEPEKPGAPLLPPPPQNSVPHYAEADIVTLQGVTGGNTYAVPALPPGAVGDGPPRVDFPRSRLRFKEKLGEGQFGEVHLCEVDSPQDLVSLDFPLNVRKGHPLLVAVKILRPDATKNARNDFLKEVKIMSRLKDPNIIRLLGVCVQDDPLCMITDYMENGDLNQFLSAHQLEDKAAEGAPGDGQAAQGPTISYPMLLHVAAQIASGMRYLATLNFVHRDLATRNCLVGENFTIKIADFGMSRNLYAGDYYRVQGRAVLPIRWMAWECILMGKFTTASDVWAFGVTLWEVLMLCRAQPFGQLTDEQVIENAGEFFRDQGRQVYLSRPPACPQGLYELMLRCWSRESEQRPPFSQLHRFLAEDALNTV
assay.explanation: Evaluation of DDR1 kinase inhibition (LANCE Ultra TR-FRET kinase assay)
Format: biochemical
Parameters: purchased Carna Biosciences 08-113
details: DDR1 protein 0.5 nM, LANCE Ultra ULight-poly GAT substrate, 2 hours at room temperature, duplicate; read-out: DDR-1 IC50
pIC50: −log10 of the molar value. Structures can show the parent of a compound that is named as a salt.

molecule	pIC50
Nc1cc(C(=O)N2CC(c3nn(CC(=O)N4CCO[C@@H](C(F)(F)F)C4)c4cccc(F)c34)C2)ccn1 [Compound E-95, hydrochloride]	8.11
Nc1cc(C(=O)N2CC(c3nn(CC(=O)NCC(F)(F)F)c4cccc(Cl)c34)C2)ccn1	8.03
CC(C)(C)NC(=O)Cn1nc(C2CN(C(=O)c3cc(N)ncc3F)C2)c2ccccc21	8.28
CC(C)(NC(=O)Cn1nc(C2CN(C(=O)c3ccnc(N)c3)C2)c2ccccc21)C1CC1	8.10
Nc1cc(C(=O)N2CCC(c3nn(Cc4ccc(C(F)(F)F)nc4)c4cccc(F)c34)CC2)ccn1	6.96
Nc1cc(C(=O)N2CCC(c3cn(CC(=O)N4CCC[C@H]4C(F)(F)F)c4cccc(F)c34)CC2)c(F)cn1	9.52
Nc1cc(C(=O)N2CC(c3nn(CC(=O)N4CCC[C@H]4C(F)(F)F)c4cc(F)cc(F)c34)C2)c(F)cn1	8.62
Nc1cc(C(=O)N2CC(c3nn(CC(=O)N4CCC[C@H]4C(F)(F)F)c4cc(F)ccc34)C2)c(F)cn1	8.32
Cc1nc(N)sc1C(=O)N1CC(c2nn(CC(=O)N3CCC[C@H]3C(F)(F)F)c3cc(F)cc(F)c23)C1	8.28
Cc1cc2c(C3CN(C(=O)c4ccnc(N)c4)C3)nn(Cc3ccc(C(F)(F)F)cc3)c2cn1	7.19

Recorded values, source patent EP4624465A1.
